Source: ChEMBL document CHEMBL1250518

# assay_info: Cmax in Sprague-Dawley rat at 30 mg/kg, po
# Assay type: ADME, organism-based
# Design: dose 30 mg/kg, route oral
# assay_setup: in vivo
measurement_kind: Cmax
Record the result as number plus unit.

1) COc1ccc(-c2cncnc2)cc1C(C)(C)C[C@@](O)(Cc1cc2ccncc2[nH]1)C(F)(F)F | 422 ng/mL
2) COc1ccc(F)cc1C(C)(C)C[C@@](O)(Cc1cc2ccncc2[nH]1)C(F)(F)F | 427 ng/mL

Continue with the next compound.
Query: I would be grateful if you could share the reported Cmax for CC(C)(C[C@@](O)(Cc1cc2ccncc2[nH]1)C(F)(F)F)c1cc(F)ccc1O .
Reply: 444 ng/mL

====

Documented pEC50 across a set of compounds
# target_or_test_system: Glucocorticoid receptor (Homo sapiens, UniProt P04150)
# Sequence (P04150 whole entry): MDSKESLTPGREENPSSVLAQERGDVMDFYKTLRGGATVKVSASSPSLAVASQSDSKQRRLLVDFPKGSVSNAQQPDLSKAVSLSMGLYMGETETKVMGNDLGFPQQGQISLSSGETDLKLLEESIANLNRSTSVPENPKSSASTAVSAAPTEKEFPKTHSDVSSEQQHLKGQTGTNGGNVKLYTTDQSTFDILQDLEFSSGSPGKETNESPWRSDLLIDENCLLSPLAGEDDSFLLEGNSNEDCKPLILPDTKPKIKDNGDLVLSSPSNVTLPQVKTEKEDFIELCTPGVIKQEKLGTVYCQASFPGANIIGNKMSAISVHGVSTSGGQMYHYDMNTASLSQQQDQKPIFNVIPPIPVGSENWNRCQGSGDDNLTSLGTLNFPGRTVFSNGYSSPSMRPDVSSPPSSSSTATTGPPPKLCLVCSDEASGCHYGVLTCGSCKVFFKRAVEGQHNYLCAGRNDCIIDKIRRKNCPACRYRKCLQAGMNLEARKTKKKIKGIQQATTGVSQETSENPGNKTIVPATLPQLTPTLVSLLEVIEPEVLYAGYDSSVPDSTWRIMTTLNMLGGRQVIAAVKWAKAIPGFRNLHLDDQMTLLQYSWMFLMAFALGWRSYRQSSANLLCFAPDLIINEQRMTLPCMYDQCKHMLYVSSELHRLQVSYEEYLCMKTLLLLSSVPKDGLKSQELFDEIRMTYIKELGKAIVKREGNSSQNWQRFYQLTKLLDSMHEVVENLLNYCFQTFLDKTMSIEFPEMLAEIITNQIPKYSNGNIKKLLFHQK
# assay_info: Transactivation activity at glucocorticoid receptor in HFF assessed as induction of aromatase activity after 18 to 24 hrs by ELISA
Lab note — pEC50 values are minus log10 of concentrations in M.

1. COc1ccc(F)cc1C(C)(C)C[C@@](O)(Cc1cc2cnccc2[nH]1)C(F)(F)F | 7.46

Next, consider the following compound.
Query: Observed pEC50 on Glucocorticoid receptor (Homo sapiens, UniProt P04150) for CC(C)(C[C@@](O)(Cc1cc2cnccc2[nH]1)C(F)(F)F)c1cc(F)ccc1O , please.
Reply: 7.35
